Data provenance is ChEMBL document CHEMBL3352564.

Exercise: state measured MIC for each of the compounds provided.
Test system: Pseudomonas aeruginosa
Assay: Antimicrobial activity against Pseudomonas aeruginosa PAO1 ARC545 by CLSI dilution method
Format: functional
Answers are plain numbers, in µM.

Worked set:
O=C(NO)C1(COc2ccc(C#Cc3ccc(CN4CCOCC4)cc3)cc2)CCOCC1 | 100
O=C(NO)C1(COc2ccc(C#Cc3ccc(CN4CCN(CCN5CCOCC5)CC4)cc3)cc2)CCOCC1 | 50
CN(C)CC1CN(Cc2ccc(C#Cc3ccc(OCC4(C(=O)NO)CCOCC4)cc3)cc2)CCO1 (centres undefined) | 100
CC(C)N1CCN(Cc2ccc(C#Cc3ccc(OCC4(C(=O)NO)CCOCC4)cc3)cc2)CC1 | 100
C[C@@H](O)[C@H](NC(=O)c1ccc(C#Cc2ccc(CN3CCOCC3)cc2)cc1)C(=O)NO | 1.56

Entry under test: `O=C(NO)C1(CSc2ccc(Oc3ccc(Cl)cc3)cc2)CCOCC1` . Its MIC was 50
